Listed here: items and their measured emission maximum.
experiment.description: solvent given as SMILES
protocol.conditions: in CC#N
Response body: numeric value in nm, unit text excluded.

{"compound": "N#Cc1coc2ccccc2c1=O", "units.symbol": "nm", "emission maximum": 495}
{"compound": "COc1cccc2cc(-c3cc4cccc(OC)c4oc3=O)oc12", "units.symbol": "nm", "emission maximum": 488}
{"compound": "Cc1ccc(C2CC(c3ccc(O)cc3)=NN2c2ccc(S(N)(=O)=O)cc2)cc1 (stereo not given)", "units.symbol": "nm", "emission maximum": 417}
{"compound": "O=C1c2ccccc2-c2c(-c3cc(Cl)ccc3O)[nH]c(=O)n21", "units.symbol": "nm", "emission maximum": 475}

Sure, the documented emission maximum for CN(C)c1ncc2nc(C#N)n(Cc3ccccc3)c2n1 is 440

Sure, the documented emission maximum for CCC1=C(C)C2=C(C)c3c(C)c(-c4csc(N5CCOCC5)n4)c(C)n3[B-](F)(F)[N+]2=C1C is 543

Sure, the documented emission maximum for O=c1c2cc(Br)ccc2nc2n1[B-](F)(F)[n+]1ccccc1-2 is 440

Sure, the documented emission maximum for CC(C)(C)c1ccc(-c2nc3c4ccc(-c5c6ccccc6cc6ccccc56)cc4c4cc(-c5c6ccccc6cc6ccccc56)ccc4c3n2-c2ccc(C(C)(C)C)cc2)cc1 is 455

Sure, the documented emission maximum for Nc1nc2ccccc2[n+]([O-])n1 is 478
